Provide the recorded IC50 for the entries that follow.
# TESTED_SYSTEM: Proto-oncogene tyrosine-protein kinase Src (Homo sapiens, UniProt P12931)
# Sequence (P12931 2-536 limits assumed): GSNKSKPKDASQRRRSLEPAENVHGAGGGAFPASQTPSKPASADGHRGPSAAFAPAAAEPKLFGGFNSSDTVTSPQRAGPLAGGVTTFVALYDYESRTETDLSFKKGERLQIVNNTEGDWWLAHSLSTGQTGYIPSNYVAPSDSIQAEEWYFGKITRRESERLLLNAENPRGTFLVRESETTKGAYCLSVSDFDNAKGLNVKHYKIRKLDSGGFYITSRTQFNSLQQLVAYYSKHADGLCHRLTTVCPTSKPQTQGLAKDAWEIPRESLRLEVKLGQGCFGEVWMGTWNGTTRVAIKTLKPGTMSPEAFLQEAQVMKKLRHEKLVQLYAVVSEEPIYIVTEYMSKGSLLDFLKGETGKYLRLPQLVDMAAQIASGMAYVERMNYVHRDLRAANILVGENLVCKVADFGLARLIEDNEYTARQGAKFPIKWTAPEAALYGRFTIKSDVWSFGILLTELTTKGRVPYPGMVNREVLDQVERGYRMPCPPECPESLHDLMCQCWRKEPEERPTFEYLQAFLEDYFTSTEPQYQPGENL
Give bare numbers, in µM.

{"columns": ["COMPOUND_STRUCTURE_STRING", "TESTED_SYSTEM", "IC50 (µM)"],
 "data": [
  ["OC[C@H]1O[C@@H](Oc2ccc3ccccc3c2)[C@H](O)[C@@H]1O", "Proto-oncogene tyrosine-protein kinase Src (Homo sapiens, UniProt P12931)", 225]
]}

Please give IC50, item by item, for the list that follows.
1. Cc1cccc(O[C@H]2O[C@H](CO)[C@@H](O)[C@H]2O)c1
2. OC[C@H]1O[C@H](Oc2cccc3ccccc23)[C@H](O)[C@@H]1O

Response:
1. 451
2. 185
